Kd values by entry
Molecular target: MRGPRX2 (Homo sapiens)
Sequence (Q96LB1 1-330): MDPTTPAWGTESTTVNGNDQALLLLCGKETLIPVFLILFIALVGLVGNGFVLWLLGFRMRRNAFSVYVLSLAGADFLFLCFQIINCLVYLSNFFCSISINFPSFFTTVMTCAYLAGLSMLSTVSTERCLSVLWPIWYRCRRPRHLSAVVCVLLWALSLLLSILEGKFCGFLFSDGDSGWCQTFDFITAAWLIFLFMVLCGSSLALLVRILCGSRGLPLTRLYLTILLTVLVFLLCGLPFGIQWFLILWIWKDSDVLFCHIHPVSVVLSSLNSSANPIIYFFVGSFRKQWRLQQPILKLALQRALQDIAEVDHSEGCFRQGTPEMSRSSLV
Structures can show the parent of a compound that is named as a salt.
Respond with the bare value in µM.

Task: Identify measured Kd corresponding to `COC1=C[C@@H]2[C@@H]3Cc4ccc(OC)c(O)c4[C@]2(CCN3)CC1=O`
Result: 7.58

For the next question, use this compound.
Task: Identify measured Kd corresponding to COC1=C[C@@H]2[C@@H]3Cc4ccc(OC)c(O)c4[C@]2(CCN3C)CC1=O [SH, sinomenine hydrochloride]
Result: 0.681
